The values you see were collected from the kinase profiling compilation of Christmann-Franck et al. (2016).

molecular target: WEE1 (human) (UniProt P30291); experiment: radiometric filter-binding kinase assay, Kinase HotSpot; settings: compound 0.5 µM; ATP 10 µM
Sequence (P30291 whole entry, looked up): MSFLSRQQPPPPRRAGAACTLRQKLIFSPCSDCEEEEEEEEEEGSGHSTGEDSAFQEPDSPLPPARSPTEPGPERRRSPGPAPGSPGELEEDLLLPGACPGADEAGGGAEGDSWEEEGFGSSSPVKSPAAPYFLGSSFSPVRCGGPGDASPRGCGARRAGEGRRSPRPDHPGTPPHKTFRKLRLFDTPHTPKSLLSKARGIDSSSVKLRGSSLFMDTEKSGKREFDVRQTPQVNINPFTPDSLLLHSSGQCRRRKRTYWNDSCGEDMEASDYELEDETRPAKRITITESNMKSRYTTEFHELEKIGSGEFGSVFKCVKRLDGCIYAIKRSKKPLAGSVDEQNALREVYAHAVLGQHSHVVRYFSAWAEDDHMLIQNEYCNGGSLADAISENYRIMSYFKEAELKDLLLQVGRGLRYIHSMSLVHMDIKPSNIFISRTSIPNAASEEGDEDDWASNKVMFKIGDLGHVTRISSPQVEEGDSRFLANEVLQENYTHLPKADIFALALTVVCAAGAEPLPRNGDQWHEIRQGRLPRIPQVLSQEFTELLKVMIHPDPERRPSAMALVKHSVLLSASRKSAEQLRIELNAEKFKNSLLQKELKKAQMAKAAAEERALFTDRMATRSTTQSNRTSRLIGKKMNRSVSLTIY
Field 'label' (enum: t / f). Set to t when residual activity is strictly under 90%; else f.

Here are 4 compounds together with their reported answers.
Lab note: confirm whether the reported residual activity for this compound is below 90%, equality not counting. compound: CO[C@H]1CC2CC[C@@H](C)[C@@](O)(O2)C(=O)C(=O)N2CCCC[C@H]2C(=O)OC([C@H](C)C[C@@H]2CC[C@@H](O)[C@H](OC)C2)CC(=O)[C@H](C)/C=C(\C)[C@@H](O)[C@@H](OC)C(=O)[C@H](C)C[C@H](C)/C=C/C=C/C=C/1C (some centres undefined)
f

Lab note: confirm whether the reported residual activity for this compound is below 90%, equality not counting. compound: Cc1ccc(Nc2nccc(N(C)c3ccc4c(C)n(C)nc4c3)n2)cc1S(N)(=O)=O
f

Lab note: confirm whether the reported residual activity for this compound is below 90%, equality not counting. compound: Nc1ncnc2[nH]nc(Nc3ccc(F)cc3)c12
f

Lab note: confirm whether the reported residual activity for this compound is below 90%, equality not counting. compound: Nc1ncnc2c1c(-c1ccc(Oc3ccccc3)cc1)cn2C1CCCC1
t

--- query ---
Lab note: confirm whether the reported residual activity for this compound is below 90%, equality not counting. compound: CCC(=O)Nc1ccc2ncnc(Nc3cccc(Br)c3)c2c1
t
